Ref: patent US20260116991A1

Target: T1, monkey GPC3-His protein (monkey)
T1 construct: Bought protein; also called monkey GPC3 protein
Assay: ELISA, monkey GPC3-His coated; antibody 0.0008 nM
MEASURED ENDPOINT: OD450 nm

INSERT INTO measurements (binder, measured_endpoint, reported_value) VALUES
  ('hAb001H1L1 (antibody, human IgG1, V domains shown, Humanized F2.169.2, H1+L1) VH: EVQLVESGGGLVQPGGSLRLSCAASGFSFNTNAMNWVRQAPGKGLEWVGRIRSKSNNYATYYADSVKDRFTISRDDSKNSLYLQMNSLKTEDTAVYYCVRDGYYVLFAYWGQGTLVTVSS VL: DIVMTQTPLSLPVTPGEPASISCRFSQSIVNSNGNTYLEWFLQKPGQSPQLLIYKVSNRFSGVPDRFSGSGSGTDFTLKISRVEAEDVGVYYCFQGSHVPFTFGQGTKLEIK', 'OD450 nm', 0.198),
  ('hAb001H2L1b (antibody, human IgG1, V domains shown, Humanized F2.169.2, H2+L1b) VH: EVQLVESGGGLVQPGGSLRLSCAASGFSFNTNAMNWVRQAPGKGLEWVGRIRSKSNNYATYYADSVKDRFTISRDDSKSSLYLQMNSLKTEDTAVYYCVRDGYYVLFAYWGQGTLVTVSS VL: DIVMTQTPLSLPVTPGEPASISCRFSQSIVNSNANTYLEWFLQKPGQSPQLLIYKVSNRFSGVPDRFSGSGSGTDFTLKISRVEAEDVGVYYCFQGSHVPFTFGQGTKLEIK', 'OD450 nm', 0.143),
  ('hAb006LH3L1b (antibody, human IgG1, V domains shown, Humanized F3.38.7, H3+L1b) VH: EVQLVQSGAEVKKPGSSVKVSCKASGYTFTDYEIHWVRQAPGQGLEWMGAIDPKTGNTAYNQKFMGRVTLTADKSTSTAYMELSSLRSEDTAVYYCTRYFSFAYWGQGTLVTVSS VL: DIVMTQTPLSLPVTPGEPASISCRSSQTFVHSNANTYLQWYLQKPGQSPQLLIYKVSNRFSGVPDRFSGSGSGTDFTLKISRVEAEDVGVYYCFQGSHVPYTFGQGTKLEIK', 'OD450 nm', 0.125),
  ('hAb003LH2L1b (antibody, human IgG1, V domains shown, Humanized F2.154.1, H2+L1b) VH: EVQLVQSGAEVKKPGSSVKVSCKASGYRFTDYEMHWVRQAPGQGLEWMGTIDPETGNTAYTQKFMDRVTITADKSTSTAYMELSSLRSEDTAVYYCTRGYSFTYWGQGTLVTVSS VL: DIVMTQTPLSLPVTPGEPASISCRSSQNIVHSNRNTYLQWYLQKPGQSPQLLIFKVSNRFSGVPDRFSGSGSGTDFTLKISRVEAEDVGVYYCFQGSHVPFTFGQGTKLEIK', 'OD450 nm', 0.185);
